# Target Entity: T1, Dimeric fibrinogen-like domain of human Ang-2 conjugated to human IgG1 (human)
# T1 construct: also called Dimeric Human Ang-2FD; Human Ang-2FD-hFc
# T1 sequence (chain, as listed by the source limits assumed): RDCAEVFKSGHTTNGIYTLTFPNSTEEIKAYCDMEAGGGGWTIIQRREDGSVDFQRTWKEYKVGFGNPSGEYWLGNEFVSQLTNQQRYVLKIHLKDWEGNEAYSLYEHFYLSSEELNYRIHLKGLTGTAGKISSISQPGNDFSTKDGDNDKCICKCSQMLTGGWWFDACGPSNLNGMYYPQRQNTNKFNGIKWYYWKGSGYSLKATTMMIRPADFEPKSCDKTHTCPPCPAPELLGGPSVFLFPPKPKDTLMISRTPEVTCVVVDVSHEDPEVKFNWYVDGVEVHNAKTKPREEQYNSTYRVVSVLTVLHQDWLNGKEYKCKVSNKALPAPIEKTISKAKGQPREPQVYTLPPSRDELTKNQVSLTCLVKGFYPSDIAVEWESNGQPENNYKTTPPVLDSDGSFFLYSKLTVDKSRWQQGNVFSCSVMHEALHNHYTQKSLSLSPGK
# Assay Info: blocking ELISA, 16.67 nM antibody, coated hTie-2-mFc
Recorded Endpoint: Percent Blocking of Ang-2FD Binding to Tie-2 (%)
Number in %, nothing else.

Query: Please give measured Percent Blocking of Ang-2FD Binding to Tie-2 of the following entry: H2M749N (antibody, V domains shown, Hybridoma-derived chimeric antibody, mouse constant domains; also called H1M749N; H1M749) VH: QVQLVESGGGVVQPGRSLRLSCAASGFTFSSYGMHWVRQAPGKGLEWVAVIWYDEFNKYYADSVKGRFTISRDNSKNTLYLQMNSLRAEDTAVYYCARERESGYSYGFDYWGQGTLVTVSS VL: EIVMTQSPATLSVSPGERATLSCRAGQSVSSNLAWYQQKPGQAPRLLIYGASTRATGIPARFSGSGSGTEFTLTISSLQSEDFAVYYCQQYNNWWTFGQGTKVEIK
Reply: 99.5
